Origin of measurements: patent US7227023B2

Where a name gives a salt, the structure may show the parent alone.
The entries below are paired with their reported melting point.

Sample answers from the record:
The compound listed as CCCN(CCc1c[nH]c2ccc(F)cc12)C1COc2ccc3ncccc3c2C1 (centres unmarked) (as salt: hydrochloride) shows melting point equal to 67 °C

The compound listed as CCCN(CCCc1c[nH]c2ccc(F)cc12)C1COc2ccc3ncccc3c2C1 (single isomer, unassigned; (+)) (as salt: hydrochloride) [Compound 4] shows melting point equal to 106 °C (dec.)

The compound listed as Fc1ccc2[nH]cc(CCCNC3COc4c(ccc5ncccc45)C3)c2c1 (centres unmarked) (as salt: hydrochloride) [Compound 7] shows melting point equal to 300 °C (dec.)

The compound listed as CCCN(CCCc1c[nH]c2ccc(F)cc12)C1COc2ccc3ncccc3c2C1 (single isomer, unassigned; (-)) (as salt: hydrochloride) [Compound 3] shows melting point equal to 83.5 °C (dec.)

The compound listed as CCCN(CCCc1c[nH]c2ccc(F)cc12)C1COc2ccc3ncccc3c2C1 (centres unmarked) (as salt: hydrochloride) [Compound 2] shows melting point equal to > 148 °C

The compound listed as CCCN(CCCc1c[nH]c2ccc(F)cc12)C1COc2c(ccc3ncccc23)C1 (centres unmarked) (as salt: hydrochloride) shows melting point equal to 134 °C (dec.)

The compound listed as Fc1ccc2[nH]cc(CCCNC3COc4c(ccc5ncccc45)C3)c2c1 (single isomer, unassigned; (-)) (as salt: hydrochloride) [Compound 7b] shows melting point equal to 250 °C (dec.)

***
The compound listed as Fc1ccc2[nH]cc(CCCNC3COc4ccc5ncccc5c4C3)c2c1 (single isomer, unassigned; (+)) (as salt: hydrochloride) [Compound 1a] shows melting point equal to 330 °C (dec.)

* * *

Ki data for 5-HT Transporter (Rattus norvegicus, UniProt P31652) follow.
Report as a plain number; the unit nM is understood.

Sample answers from the record:
The compound listed as Fc1ccc2[nH]cc(CCCCNC3COc4c(ccc5ncccc45)C3)c2c1 (stereo not shown) shows Ki equal to 1.18

The compound listed as CCCN(CCc1c[nH]c2ccc(F)cc12)C1COc2ccc3ncccc3c2C1 (stereo not shown) shows Ki equal to 40

The compound listed as CCCN(CCCc1c[nH]c2ccc(F)cc12)C1COc2c(ccc3ncccc23)C1 (stereo not shown) shows Ki equal to 15

The compound listed as Fc1ccc2[nH]cc(CCNC3COc4ccc5ncccc5c4C3)c2c1 (stereo not shown) shows Ki equal to 24

The compound listed as Fc1ccc2[nH]cc(CCCNC3COc4c(ccc5ncccc45)C3)c2c1 (single isomer, unassigned; (-)) shows Ki equal to 4.2

***
The compound listed as CCCN(CCCc1c[nH]c2ccc(F)cc12)C1COc2ccc3ncccc3c2C1 (stereo not shown) shows Ki equal to 6.5

The compound listed as CCCN(CCCCc1c[nH]c2ccc(F)cc12)C1COc2c(ccc3ncccc23)C1 (stereo not shown) shows Ki equal to 12

* * *

The entries below are paired with their reported log10 of EC50.
target: cloned human 5-HT1A receptors (Homo sapiens, UniProt P08908); assay: 35S-GTPγS binding assay, agonist activity at 5-HT1A receptors; settings: membranes containing cloned human 5-HT1A receptors, read-out: 5-HT1A Function EC50
All values: base-10 log of EC50 in nM.

Fc1ccc2[nH]cc(CCNC3COc4ccc5ncccc5c4C3)c2c1 (stereo not shown) [Compound 5] tested on cloned human 5-HT1A receptors (Homo sapiens, UniProt P08908) gave log10 of EC50: 3.70

CCCN(CCCc1c[nH]c2ccc(F)cc12)C1COc2c(ccc3ncccc23)C1 (stereo not shown) [Compound 8] tested on cloned human 5-HT1A receptors (Homo sapiens, UniProt P08908) gave log10 of EC50: 3.23

Fc1ccc2[nH]cc(CCCNC3COc4ccc5ncccc5c4C3)c2c1 (single isomer, unassigned; (-)) [Compound 1b] tested on cloned human 5-HT1A receptors (Homo sapiens, UniProt P08908) gave log10 of EC50: 2.08

* * *

biological target: cloned human 5-HT1A receptors (Homo sapiens); assay: 35S-GTPγS binding assay, agonist activity at 5-HT1A receptors; details: membranes containing cloned human 5-HT1A receptors, read-out: 5-HT1A Function EC50
# note: boundary value 200 nM maps to criterion not met; EC50 below it maps to criterion met

Use the examples below as a reference point.
**Q:** Dear reviewer, please state whether Fc1ccc2[nH]cc(CCCNC3COc4c(ccc5ncccc45)C3)c2c1 (stereo not drawn) [Compound 7] has EC50 strictly beneath 200 nM.
**A:** criterion not met

**Q:** Dear reviewer, please state whether Fc1ccc2[nH]cc(CCCCNC3COc4c(ccc5ncccc45)C3)c2c1 (stereo not drawn) has EC50 strictly beneath 200 nM.
**A:** criterion not met

**Q:** Dear reviewer, please state whether CCCN(CCc1c[nH]c2ccc(F)cc12)C1COc2ccc3ncccc3c2C1 (stereo not drawn) has EC50 strictly beneath 200 nM.
**A:** criterion met

**Q:** Dear reviewer, please state whether CCCN(CCCc1c[nH]c2ccc(F)cc12)C1COc2ccc3ncccc3c2C1 (single isomer, unassigned; (-)) [Compound 3] has EC50 strictly beneath 200 nM.
**A:** criterion not met

**Q:** Dear reviewer, please state whether Fc1ccc2[nH]cc(CCCNC3COc4ccc5ncccc5c4C3)c2c1 (stereo not drawn) [Compound 1] has EC50 strictly beneath 200 nM.
**A:** criterion met

***
**Q:** Dear reviewer, please state whether Fc1ccc2[nH]cc(CCCNC3COc4c(ccc5ncccc45)C3)c2c1 (single isomer, unassigned; (-)) [Compound 7b] has EC50 strictly beneath 200 nM.
**A:** criterion met

* * *

Target: human 5-HT1A receptors (Homo sapiens, UniProt P08908)
Sequence (P08908 1-422): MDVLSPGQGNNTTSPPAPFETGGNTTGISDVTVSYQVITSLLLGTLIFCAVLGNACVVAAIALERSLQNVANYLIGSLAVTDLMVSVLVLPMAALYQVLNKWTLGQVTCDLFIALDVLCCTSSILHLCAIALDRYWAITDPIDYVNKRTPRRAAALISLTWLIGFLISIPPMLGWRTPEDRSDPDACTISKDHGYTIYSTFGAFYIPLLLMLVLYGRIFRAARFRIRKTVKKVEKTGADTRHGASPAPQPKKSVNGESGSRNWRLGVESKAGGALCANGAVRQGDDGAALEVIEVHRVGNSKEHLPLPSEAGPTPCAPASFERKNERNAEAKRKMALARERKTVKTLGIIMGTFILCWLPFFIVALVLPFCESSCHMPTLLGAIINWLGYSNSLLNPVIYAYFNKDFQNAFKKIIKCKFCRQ
Attribute Measured: pKi
Please report pKi as the negative decimal logarithm of the molar concentration, giving only the number.

The molecule listed as CCCN(CCc1c[nH]c2ccc(F)cc12)C1COc2ccc3ncccc3c2C1 (stereo not drawn) shows pKi equal to 6.32

***
The molecule listed as Fc1ccc2[nH]cc(CCCNC3COc4ccc5ncccc5c4C3)c2c1 (stereo not drawn) shows pKi equal to 7.20

The molecule listed as CCCN(CCCc1c[nH]c2ccc(F)cc12)C1COc2ccc3ncccc3c2C1 (stereo not drawn) shows pKi equal to 7.04

* * *

The entries below are paired with their reported Emax.
target: cloned human 5-HT1A receptors (Homo sapiens, UniProt P08908); construct: expressed in transfected cells; test: 35S-GTPγS binding assay, agonist activity at 5-HT1A receptors; format: biochemical; settings: membranes containing cloned human 5-HT1A receptors, value in parentheses, read-out: 5-HT1A Function Emax (maximum stimulatory effect)
Report as a plain number; the unit % is understood.

Sample answers from the record:
CCCN(CCc1c[nH]c2ccc(F)cc12)C1COc2ccc3ncccc3c2C1 (centres unmarked) [Compound 6] tested on cloned human 5-HT1A receptors (Homo sapiens, UniProt P08908) gave Emax: 41.3

Fc1ccc2[nH]cc(CCCNC3COc4ccc5ncccc5c4C3)c2c1 (centres unmarked) [Compound 1] tested on cloned human 5-HT1A receptors (Homo sapiens, UniProt P08908) gave Emax: 75.8

***
CCCN(CCCc1c[nH]c2ccc(F)cc12)C1COc2c(ccc3ncccc23)C1 (centres unmarked) [Compound 8] tested on cloned human 5-HT1A receptors (Homo sapiens, UniProt P08908) gave Emax: 68.3

Fc1ccc2[nH]cc(CCCNC3COc4c(ccc5ncccc45)C3)c2c1 (centres unmarked) [Compound 7] tested on cloned human 5-HT1A receptors (Homo sapiens, UniProt P08908) gave Emax: 100

CCCN(CCCc1c[nH]c2ccc(F)cc12)C1COc2ccc3ncccc3c2C1 (centres unmarked) [Compound 2] tested on cloned human 5-HT1A receptors (Homo sapiens, UniProt P08908) gave Emax: 100

Fc1ccc2[nH]cc(CCNC3COc4ccc5ncccc5c4C3)c2c1 (centres unmarked) [Compound 5] tested on cloned human 5-HT1A receptors (Homo sapiens, UniProt P08908) gave Emax: 30

Fc1ccc2[nH]cc(CCCCNC3COc4c(ccc5ncccc45)C3)c2c1 (centres unmarked) [Compound 9] tested on cloned human 5-HT1A receptors (Homo sapiens, UniProt P08908) gave Emax: 100

Fc1ccc2[nH]cc(CCCNC3COc4ccc5ncccc5c4C3)c2c1 (single isomer, unassigned; (+)) [Compound 1a] tested on cloned human 5-HT1A receptors (Homo sapiens, UniProt P08908) gave Emax: 100
